Tested on: P. falciparum Dd2 (PfLuc) line expressing firefly luciferase, asexual blood stage
Assay: microbe, parasite or virus in culture
Type: cell-based, Plasmodium falciparum
Details: Plasmodium falciparum, DD2; 11-pt dose response, 96hr; read-out: CDD P. falciparum Luciferase ABS 11-pt Reconfirmation Dose Response (96hr): Maximum inhibition (%)
Measured Endpoint: Emax (%)
The response must be a number in % with no trailing unit.

{"Compound": "CC(C)(C)C(=O)NCCNCc1ccc(Cl)c2cccnc12 [DDD01070293]", "Unit Tag": "%", "Emax": 83.4}

Ask: Respond only with Emax recorded for CC(C)N1CCC(NCc2cccnc2N(C)Cc2ccccc2)CC1 [DDD01257477]
Result: 87.8

Ask: Using known records, supply Emax for COc1cccc(CNCc2cccc(Cl)c2)c1O [DDD01038248]
Result: 98

Ask: Identify measured Emax associated with Cc1cccc(Nc2cccc(C3CCCN(Cc4ncc[nH]4)C3)n2)n1 (stereo not shown) [DDD01059475]
Result: 100

Ask: Identify measured Emax associated with CC(C)[C@@H]1CN(C(=O)C2(c3ccccc3)CCN(C)CC2)C[C@H]1N(C)C [DDD01249452]
Result: 95.6

Ask: For O=C(CN1CCCC(c2ccn[nH]2)C1)Nc1nc2c(s1)CCC2 (stereo not shown) [DDD01079497] , write its Emax.
Result: 97.6

Ask: Respond only with Emax recorded for Cc1cccc(C2(NCCCS(C)(=O)=O)CCCC2)c1 [DDD01078804]
Result: 85.9
